biological target: pooled human IgG (human IgG1,2,3 and 4)
measured_endpoint: Enzyme Activity Endpoint Assay (purified): Fc (ng/µL)
// note: answer is a bare numeric in ng/µL

Query: Return reported Enzyme Activity Endpoint Assay (purified): Fc; argument: PRT-501 (protein) MVTSVWTKGVTPPADFTQGEDVFHAPYVANQGWYDITKTFNGKDDLLCGAATAGNMLHWWFDQNKEYIEAYLKKHPEKQKIMFGDQELLDVRKAINTKGSQKNSELFNYFRDKAFPNLSARRLGVMPDLVLDMFINGYYLNVTKTQTTDVNRTYQEKDKRGGIFDAVFTRGDQSKLLTSRHDLKNKGLKEISDLIKQELTEGKALGLSHTYANVRINHVINLWGADFDSDGNLKAIYVTDSDSNASIGMKKYFVGVNSAGKVAISAKEIKEDNIGAQVLGLFTLSTGQDIWNQTNLEHHHHHH
Reply: 0

meta.source: patent US20250027068
